// IC50 lookup, one value per entry
- Tested target: full-length beta-Catenin (Uniprot ID P35222) (Homo sapiens (Human)) (UniProt P35222)
- Sequence (P35222 whole entry, the tested form may be a part): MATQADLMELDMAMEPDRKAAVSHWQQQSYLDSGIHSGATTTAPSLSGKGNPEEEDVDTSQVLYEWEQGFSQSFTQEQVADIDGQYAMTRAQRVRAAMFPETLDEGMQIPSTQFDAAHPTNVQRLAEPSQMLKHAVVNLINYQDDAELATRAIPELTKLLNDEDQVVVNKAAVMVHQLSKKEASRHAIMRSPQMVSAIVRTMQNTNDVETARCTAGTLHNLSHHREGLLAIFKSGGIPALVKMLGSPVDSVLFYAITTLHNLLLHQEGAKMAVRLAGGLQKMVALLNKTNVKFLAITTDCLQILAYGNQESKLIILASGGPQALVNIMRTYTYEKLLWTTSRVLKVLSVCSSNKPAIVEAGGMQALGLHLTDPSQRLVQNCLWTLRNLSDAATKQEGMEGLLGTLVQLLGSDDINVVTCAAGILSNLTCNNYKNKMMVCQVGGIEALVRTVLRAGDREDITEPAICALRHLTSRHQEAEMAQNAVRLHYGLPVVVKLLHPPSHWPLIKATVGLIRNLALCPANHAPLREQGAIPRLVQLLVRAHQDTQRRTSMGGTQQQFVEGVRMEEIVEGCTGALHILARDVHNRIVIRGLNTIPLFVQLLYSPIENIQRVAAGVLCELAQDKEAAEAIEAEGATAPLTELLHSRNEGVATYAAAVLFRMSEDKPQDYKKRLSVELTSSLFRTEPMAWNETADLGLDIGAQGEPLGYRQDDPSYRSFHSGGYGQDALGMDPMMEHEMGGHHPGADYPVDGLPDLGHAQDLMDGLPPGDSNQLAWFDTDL
- Assay summary: fluorescence polarization competition; full-length beta-catenin with 5FAM-labeled TCF4 (residues 10-53) probe as competitor
Starred links: 1 amine or outer side, 2 acyl side, 3 side chain; linkers in the order of their positions; H or OH if unused. Positions of bridges follow the written chain, without caps; N, C: chain ends. Non-standard residues stand in square brackets, D forms with d. Primed or numbered codes have the meaning given here. B5(4) = 2,2-bis(4-pentenyl)glycine = 2-amino-2-(pent-4-en-1-yl)hept-6-enoic acid (stitching residue), C=CCCCC(CCCC=C)(N[*:1])C(=O)[*:2]; B5(3) = 2,2-bis(4-pentenyl)glycine (stitching residue), C=CCCCC(CCCC=C)(N[*:1])C(=O)[*:2]; B5 = 2-amino-2-(pent-4-en-1-yl)hept-6-enoic acid, C=CCCCC(CCCC=C)(N[*:1])C(=O)[*:2]; Phe(3-F) = N[C@@H](Cc1cccc(F)c1)C(=O)O; Bta = N[C@@H](Cc1csc2ccccc12)C(=O)O; αAllylPro = C=CC[C@@]1(C(=O)O)CCCN1; 2Pal = N[C@@H](Cc1ccccn1)C(=O)O; 2Thi = N[C@@H](Cc1cccs1)C(=O)O; S8 = C=CCCCCCC[C@](C)(N)C(=O)O
Endpoint label: IC50 (nM)

Binder | Units text | Measurement
Ac-[αAllylPro]DA[B5]DEAA[2Pal]V[S8]F[Bta]Q-NH2 (staple 1-4, 4-11; also: later eluting staple isomer) [I-387] | nM | 2620
Ac-[αAllylPro]DA[B5(4)]DEAA[2Thi]Q[S8][Phe(3-F)][Bta]Q-NH2 (staple 1-4, 4-11) [I-401] | nM | 134
Ac-[αAllylPro]DI[B5(3)]DEAAFQ[S8]F[Bta]-NH2 (staple 1-4, 4-11; also: staple isomer composition, earlier eluting HPLC peak) [I-408] | nM | 120
Ac-[αAllylPro]DI[B5(3)]DEAAFQ[S8]F[Bta]-NH2 (staple 1-4, 4-11; also: staple isomer composition, later eluting HPLC peak) [I-409] | nM | 70
